PROTOCOL DESCRIPTION: Kidney concentration in mouse at 50 mg/kg, po measured at 1 hr
Format: ADME, organism-based
MEASUREMENT CONDITIONS: read-out: Drug uptake

[
  {
    "COMPOUND": "FC(F)(F)c1cc2c(NC3CCCc4ccccc43)ncnc2[nH]1 (stereo in doubt)",
    "concentration at 1 h / ng/g": 11500
  }
]

###

Listing: Activity of selected molecules
System: HeLa
PROTOCOL DESCRIPTION: Cytotoxicity against human HeLa MKYP cells assessed as percentage of DAPI-positive cells at 50 uM and measured by DAPI staining method
Format: toxicity, cell-based
VALUE KIND: Activity (%)

[
  {
    "MOLECULE": "c1coc(CNc2ncnc3[nH]c(C4CCC4)nc23)c1",
    "VALUE KIND": "Activity",
    "UNITS OF MEASURE": "%",
    "VAL": 3
  },
  {
    "MOLECULE": "FC(F)(F)c1cc2c(N[C@@H]3COc4ccccc43)ncnc2[nH]1",
    "VALUE KIND": "Activity",
    "UNITS OF MEASURE": "%",
    "VAL": 29.2
  },
  {
    "MOLECULE": "c1ccc2c(c1)CC[C@H]2Nc1ncnc2[nH]cnc12",
    "VALUE KIND": "Activity",
    "UNITS OF MEASURE": "%",
    "VAL": 10.3
  },
  {
    "MOLECULE": "CCCCNc1ncnc2[nH]c(C3CC3)nc12",
    "VALUE KIND": "Activity",
    "UNITS OF MEASURE": "%",
    "VAL": 16.2
  },
  {
    "MOLECULE": "c1ccc2c(c1)CCC[C@H]2Nc1ncnc2[nH]c(C3CC3)cc12",
    "VALUE KIND": "Activity",
    "UNITS OF MEASURE": "%",
    "VAL": 16.6
  },
  {
    "MOLECULE": "C[C@@H](Nc1ncnc2[nH]c(C(F)(F)F)cc12)c1cncnc1",
    "VALUE KIND": "Activity",
    "UNITS OF MEASURE": "%",
    "VAL": 22.9
  },
  {
    "MOLECULE": "O[C@H]1Cc2ccccc2[C@@H]1Nc1ncnc2[nH]c(C(F)(F)F)cc12",
    "VALUE KIND": "Activity",
    "UNITS OF MEASURE": "%",
    "VAL": 14.4
  },
  {
    "MOLECULE": "CN1CC[C@H](Nc2ncnc3[nH]c(C(F)(F)F)cc23)c2ccccc21",
    "VALUE KIND": "Activity",
    "UNITS OF MEASURE": "%",
    "VAL": 59
  },
  {
    "MOLECULE": "COc1ccccc1CNc1ncnc2[nH]c(C(F)(F)F)cc12",
    "VALUE KIND": "Activity",
    "UNITS OF MEASURE": "%",
    "VAL": 24.7
  },
  {
    "MOLECULE": "COc1ccc(CNc2ncnc3[nH]c(C(F)(F)F)cc23)c(OC)c1",
    "VALUE KIND": "Activity",
    "UNITS OF MEASURE": "%",
    "VAL": 42.6
  },
  {
    "MOLECULE": "OC[C@@H](Nc1ncnc2[nH]c(C(F)(F)F)cc12)c1ccccc1",
    "VALUE KIND": "Activity",
    "UNITS OF MEASURE": "%",
    "VAL": 30.3
  },
  {
    "MOLECULE": "OC[C@H](Nc1ncnc2[nH]c(C(F)(F)F)cc12)c1ccccc1",
    "VALUE KIND": "Activity",
    "UNITS OF MEASURE": "%",
    "VAL": 30.4
  },
  {
    "MOLECULE": "O[C@@H]1Cc2ccccc2[C@H]1Nc1ncnc2[nH]c(C(F)(F)F)cc12",
    "VALUE KIND": "Activity",
    "UNITS OF MEASURE": "%",
    "VAL": 7.6
  },
  {
    "MOLECULE": "FC(F)(F)c1cc2c(NC3COc4ccccc43)ncnc2[nH]1 (centres undefined)",
    "VALUE KIND": "Activity",
    "UNITS OF MEASURE": "%",
    "VAL": 39.7
  },
  {
    "MOLECULE": "C[C@H](Nc1ncnc2[nH]c(C3CC3)nc12)c1ccccc1",
    "VALUE KIND": "Activity",
    "UNITS OF MEASURE": "%",
    "VAL": 27.6
  },
  {
    "MOLECULE": "FC(F)(F)c1cc2c(NC3CCCc4ccccc43)ncnc2[nH]1 (racemic)",
    "VALUE KIND": "Activity",
    "UNITS OF MEASURE": "%",
    "VAL": 27.1
  },
  {
    "MOLECULE": "OC[C@@H]1CCc2ccccc2[C@H]1Nc1ncnc2[nH]c(C(F)(F)F)cc12",
    "VALUE KIND": "Activity",
    "UNITS OF MEASURE": "%",
    "VAL": 59.5
  },
  {
    "MOLECULE": "c1ncc(CNc2ncnc3[nH]cnc23)cn1",
    "VALUE KIND": "Activity",
    "UNITS OF MEASURE": "%",
    "VAL": 5.3
  },
  {
    "MOLECULE": "CC(C)[C@@H](Nc1ncnc2[nH]c(C(F)(F)F)cc12)c1cncnc1",
    "VALUE KIND": "Activity",
    "UNITS OF MEASURE": "%",
    "VAL": 6.8
  },
  {
    "MOLECULE": "O[C@@H]1Cc2ccccc2[C@@H]1Nc1ncnc2[nH]c(C(F)(F)F)cc12",
    "VALUE KIND": "Activity",
    "UNITS OF MEASURE": "%",
    "VAL": 35.6
  },
  {
    "MOLECULE": "c1ccc2c(c1)OCC[C@@H]2Nc1ncnc2[nH]cnc12",
    "VALUE KIND": "Activity",
    "UNITS OF MEASURE": "%",
    "VAL": 17
  },
  {
    "MOLECULE": "CCCCNc1ncnc2[nH]c(C(OCC)C(F)(F)F)cc12 (centres undefined)",
    "VALUE KIND": "Activity",
    "UNITS OF MEASURE": "%",
    "VAL": 15.8
  },
  {
    "MOLECULE": "COc1ccc2c(c1)CCCC2Nc1ncnc2[nH]c(C(F)(F)F)cc12 (centres undefined)",
    "VALUE KIND": "Activity",
    "UNITS OF MEASURE": "%",
    "VAL": 95.5
  },
  {
    "MOLECULE": "FC(F)(F)c1cc2c(NCc3cnccn3)ncnc2[nH]1",
    "VALUE KIND": "Activity",
    "UNITS OF MEASURE": "%",
    "VAL": 0.9
  }
]
